Data origin: patent US7528252B2

# Tgt: P2X
# Method summary: Receptor binding study, P2X
# Experimental conditions: reference compound

Compound: Nc1ncnc2c1ncn2[C@@H]1O[C@H](COP(=O)(O)CP(=O)(O)OP(=O)(O)O)[C@@H](O)[C@H]1O [α,β-MeATP, reference compound]
Readout units: nM
IC50: 14

----------
# Tgt: human A2a receptor (Homo sapiens, UniProt P29274)
# Sequence (P29274 whole entry): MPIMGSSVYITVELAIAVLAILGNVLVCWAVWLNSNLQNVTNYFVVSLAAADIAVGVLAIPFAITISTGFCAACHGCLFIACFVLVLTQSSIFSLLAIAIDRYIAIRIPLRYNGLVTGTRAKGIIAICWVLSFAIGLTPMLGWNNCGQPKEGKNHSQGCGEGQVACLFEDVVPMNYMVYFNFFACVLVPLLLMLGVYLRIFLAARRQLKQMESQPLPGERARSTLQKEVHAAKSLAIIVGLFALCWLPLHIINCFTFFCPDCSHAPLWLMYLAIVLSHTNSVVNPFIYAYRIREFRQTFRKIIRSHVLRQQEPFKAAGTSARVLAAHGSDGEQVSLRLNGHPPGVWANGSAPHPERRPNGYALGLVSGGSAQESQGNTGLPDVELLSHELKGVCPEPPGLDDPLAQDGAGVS
# Experimental conditions: ratio of receptor affinity (selectivity)
Measured metric: KiA1/KiA2a

Compound smiles: Cn1c(-n2nccn2)nc2c(N)ncnc21
Measured metric: KiA1/KiA2a
Observed: 0.009
--
Compound smiles: Cn1c(-n2nccn2)nc2c(N)nccc21
Measured metric: KiA1/KiA2a
Observed: 16
--
Compound smiles: CCCCc1nc(N)c2nc(-n3nccn3)n(C)c2n1
Measured metric: KiA1/KiA2a
Observed: 47
--
Compound smiles: Cc1nc(N)c2nc(-n3nccn3)n(C)c2n1
Measured metric: KiA1/KiA2a
Observed: 0.15

----------
In this section, each of the molecules is paired with its reported Ki.
# Tgt: human A2a receptor (Homo sapiens, UniProt P29274)
# Experimental conditions: read-out: A2a Ki (nM) ± sd; human A2a, HEK 293 membranes, [3H]-CGS21680
Measured metric: Ki (nM)

Molecule: Cn1c(-n2nccn2)nc2c(N)ncnc21 [ST 1490]
Observed: 46

Molecule: Cc1nc(N)c2nc(-n3nccn3)n(C)c2n1 [ST 1491]
Observed: 70

----------
# Tgt: GABAa
# Method summary: Receptor binding study, GABAa
# Experimental conditions: reference compound
pIC50: −log10 of the molar value.

Compound: NCc1cc(=O)[nH]o1 [muscimol, reference compound]
pIC50: 7.80

----------
# Tgt: PCP
# Method summary: Receptor binding study, PCP
# Experimental conditions: reference compound
Measured metric: IC50

Molecule: C[C@]12N[C@H](Cc3ccccc31)c1ccccc12 [MK-801, reference compound]
Tgt: PCP
Measured metric: IC50
Observed: 2 nM

----------
# Tgt: human A2a receptor (Homo sapiens, UniProt P29274)
# Method summary: biochemical
pKi: −log10 of the molar value.

Compound smiles: Cn1c(-n2nccn2)nc2c(N)nccc21
pKi: 7.01
--
Compound smiles: CCCCc1nc(N)c2nc(-n3nccn3)n(C)c2n1
pKi: 8.64

----------
# Tgt: human A1 subtype adenosine receptor (Homo sapiens)
# Construct: expressed in transfected cells; host or cells: CHO-K1
# Sequence (P30542 1-326): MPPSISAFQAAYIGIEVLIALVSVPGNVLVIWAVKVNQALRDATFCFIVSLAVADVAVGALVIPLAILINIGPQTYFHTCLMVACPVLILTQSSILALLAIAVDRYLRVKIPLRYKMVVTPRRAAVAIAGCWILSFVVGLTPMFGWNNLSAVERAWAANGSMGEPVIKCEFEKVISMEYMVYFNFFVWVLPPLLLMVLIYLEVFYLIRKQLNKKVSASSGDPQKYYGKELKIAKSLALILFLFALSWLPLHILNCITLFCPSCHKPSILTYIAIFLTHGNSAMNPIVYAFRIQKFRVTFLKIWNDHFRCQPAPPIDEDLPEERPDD
# Method summary: Affinity towards the adenosine A1 receptor ([3H]-DPCPX binding, CHO-K1 membranes)
# Experimental conditions: read-out: A1 Ki (nM) ± sd
For each record, check the reported Ki: if it is below 10 nM write y, else write n.

Compound smiles: Cn1c(-n2nccn2)nc2c(N)nc(CCc3ccccc3)nc21
Group label: n

Compound smiles: CCCCCc1nc(N)c2nc(-n3nccn3)n(C)c2n1
Group label: n

Compound smiles: Cn1c(-n2nccn2)nc2c(N)nccc21
Group label: n

Compound smiles: Cn1c(-n2nccn2)nc2c(N)ncnc21
Group label: y

Compound smiles: CCCCc1nc(N)c2nc(-n3nccn3)n(C)c2n1
Group label: n
